B1: CAMK2D (parent)
chain: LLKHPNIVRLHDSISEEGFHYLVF

variants of: B1; assay: protein stability index of a GFP-peptide fusion (GPS, HEK-293T) (PSI 1-6); higher = more stable; conditions: c terminus: a fixed tail appended;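 further: lentivirally expressed fusions sorted by FACS into six bins by GFP to DsRed ratio, PSI derived from sequencing read proportions per bin multiplied by bin number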
Use satisfied when the recorded protein stability index is no lower than 2; use not satisfied when it is lower.

INSERT INTO assay_data (mutant_label, group_label) VALUES
  ('E16L', 'satisfied');

Query block: Has "L22F" a recorded protein stability index greater than or equal to 2?
Result block: satisfied

Query block: Assess whether reported protein stability index for "L2I" sits at 2 or higher.
Result block: satisfied

Query block: Does the reported protein stability index for "D12L" fall at or above the 2 mark?
Result block: satisfied

Query block: Is reported protein stability index greater than or equal to 2 here: "I14K"
Result block: satisfied

Query block: Would you say "H11N" shows protein stability index at minimum 2?
Result block: satisfied

Query block: Textbook exercise: given the entry "L2H" , state whether its protein stability index is greater than or equal to 2.
Result block: not satisfied
